- EXPERIMENTAL TARGET: Acetylcholinesterase (Homo sapiens)
Doc: threshold 10 µM (exclusive). Items with IC50 beneath it return T; others return F.

The examples below pair each entry with its known result.
STRUCTURE AS SMILES | CLASS LABEL
CC(C)=CCC[C@]1(C)[C@@H](CC=C(C)C)C[C@@]2(CC=C(C)C)C(=O)[C@]1(C(=O)C(C)C)C(=O)C1=C2O[C@@H](C(C)(C)O)[C@@H]1O | F
CC(C)=CCC1=C2O[C@H](C(C)(C)O)C[C@@]23C[C@H](CC=C(C)C)[C@@](C)(CCC(=O)C(C)C)[C@@](C(=O)C(C)C)(C1=O)C3=O | F
COC(C)(C)/C=C/C[C@]1(C)[C@@H](CC=C(C)C)C[C@]2(CC=C(C)C)C(=O)C3=C(O[C@@H](C(C)(C)O)C3)[C@@]1(C(=O)C(C)C)C2=O | T

Q: Consider the compound C=C(C)[C@H](O)CC[C@]1(C)[C@@H](CC=C(C)C)C[C@@]2(CC=C(C)C)C(=O)[C@]1(C(=O)C(C)C)C(=O)C1=C2O[C@H](C(C)(C)O)C1 . Is its IC50 strictly less than 10 µM?
Result: F

Q: Consider the compound C=C(C)[C@H](O)CC[C@]1(C)[C@@H](CC=C(C)C)C[C@@]2(CC=C(C)C)C(=O)[C@]1(C(=O)C(C)C)C(=O)C1=C2O[C@@H](C(C)(C)O)C1 . Is its IC50 strictly less than 10 µM?
Result: F

Q: Consider the compound CC(=O)[C@@]12C(=O)C(CC=C(C)C)=C3O[C@H](C(C)(C)O)C[C@]3(C[C@H](CC=C(C)C)[C@@]1(C)CCC=C(C)C)C2=O . Is its IC50 strictly less than 10 µM?
Result: T

----------
IC50 for assorted compounds
- EXPERIMENTAL TARGET: Acetylcholinesterase (Homo sapiens, UniProt P22303)
- Sequence (P22303 whole entry): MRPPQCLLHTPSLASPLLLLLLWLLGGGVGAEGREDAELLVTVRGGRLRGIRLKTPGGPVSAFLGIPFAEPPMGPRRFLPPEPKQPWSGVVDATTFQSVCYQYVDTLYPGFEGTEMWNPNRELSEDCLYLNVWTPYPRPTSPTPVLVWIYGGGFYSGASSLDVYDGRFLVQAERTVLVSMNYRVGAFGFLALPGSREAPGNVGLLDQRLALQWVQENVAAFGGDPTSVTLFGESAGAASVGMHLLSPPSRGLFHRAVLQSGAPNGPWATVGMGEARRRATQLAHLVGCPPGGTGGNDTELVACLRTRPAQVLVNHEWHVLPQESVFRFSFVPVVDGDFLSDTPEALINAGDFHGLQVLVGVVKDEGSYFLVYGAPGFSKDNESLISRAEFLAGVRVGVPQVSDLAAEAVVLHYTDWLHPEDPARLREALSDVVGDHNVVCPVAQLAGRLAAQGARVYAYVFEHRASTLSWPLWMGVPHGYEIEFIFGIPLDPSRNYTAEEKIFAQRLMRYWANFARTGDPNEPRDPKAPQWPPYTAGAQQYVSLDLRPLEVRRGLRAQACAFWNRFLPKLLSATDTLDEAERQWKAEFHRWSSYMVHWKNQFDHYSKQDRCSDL
Reply with just the number (in µM).

Example cases with answers are listed next.
STRUCTURE AS SMILES | VALUE MEASURED
CC(C)=CCC[C@]1(C)[C@@H](CC=C(C)C)C[C@]2(CC=C(C)C)C(=O)C3=C(O[C@H](C(C)(C)O)[C@H]3O)[C@@]1(C(=O)C(C)C)C2=O | 8.83
CC(C)=CCC[C@]1(C)[C@@H](CC=C(C)C)C[C@]2(CC=C(C)C)C(=O)C3=C(O[C@@H](C(C)(C)O)[C@@H]3O)[C@@]1(C(=O)C(C)C)C2=O | 12.6

Q: # value lookup — system Acetylcholinesterase (Homo sapiens, UniProt P22303), readout IC50, item CC(C)=CCC[C@]1(C)[C@@H](CC=C(C)C)C[C@@]2(CC=C(C)C)C(=O)[C@]1(C(=O)C(C)C)C(=O)C1=C2O[C@H](C(C)(C)O)[C@H]1O
Result: 18.6

----------
// values below are IC50; system is Acetylcholinesterase (Homo sapiens)
Reply with just the number (in µM).

Example cases with answers are listed next.
STRUCTURE AS SMILES | IC50 / µM
C=C(C)[C@H](O)CC[C@]1(C)[C@@H](CC=C(C)C)C[C@]2(CC=C(C)C)C(=O)C3=C(O[C@H](C(C)(C)O)C3)[C@@]1(C(=O)C(C)C)C2=O | 19.6
C=C(C)[C@@H](O)CC[C@]1(C)[C@@H](CC=C(C)C)C[C@]23C[C@@H](C(C)(C)O)OC2=C(CC=C(C)C)C(=O)[C@@]1(C(=O)C(C)C)C3=O | 9.13

Q: Requested read-out: IC50. Entry: CC(C)=CC[C@H]1C[C@@]2(CC=C(C)C)C(=O)[C@](C(=O)C(C)C)(C(=O)C3=C2O[C@H](C(C)(C)O)C3)[C@]1(C)CCC(=O)C(C)C
Result: 10.9

Q: Requested read-out: IC50. Entry: COC(C)(C)/C=C/C[C@]1(C)[C@@H](CC=C(C)C)C[C@]2(CC=C(C)C)C(=O)C3=C(O[C@H](C(C)(C)O)C3)[C@@]1(C(=O)C(C)C)C2=O
Result: 3.98

Q: Requested read-out: IC50. Entry: C=C(C)[C@@H](O)CC[C@]1(C)[C@@H](CC=C(C)C)C[C@]2(CC=C(C)C)C(=O)C3=C(O[C@H](C(C)(C)O)C3)[C@@]1(C(=O)C(C)C)C2=O
Result: 10.7
